These data points were gathered from the supplement of paper PMC10567573.

B1: VPS39 (parent)
chain: ITEEKVCMVCKKKIGNSAFARYPN

Variants of: B1
Experiment: protein stability index of a GFP-peptide fusion (GPS, HEK-293T) (PSI 1-6); higher = more stable;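 note: lentivirally expressed fusions sorted by FACS into six bins by GFP to DsRed ratio, PSI derived from sequencing read proportions per bin multiplied by bin number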
Conditions: c terminus: a fixed tail appended
quantity kind: protein stability index

Q: protein stability index for N24A ?
Ans: 2.11

Q: # protein stability index lookup, item K11N
Ans: 1.81

Q: Fill in: protein stability index of N24S is ___
Ans: 2.18

Q: Fill in: protein stability index of M8P is ___
Ans: 2.64

Q: protein stability index for E3K ?
Ans: 1.44

Q: For the variant shown here, E4F , give the reported protein stability index.
Ans: 1.77

Q: Find the recorded protein stability index belonging to E4Y and report it.
Ans: 2.15

Q: Look at this variant and give its reported protein stability index. K13D
Ans: 2.73

Q: I have this variant here, P23D , and I need its recorded protein stability index.
Ans: 3.19

Q: Reported protein stability index, variant T2C : ____
Ans: 2.32

Q: Suppose we examine the variant K12Y ; what protein stability index value has been reported?
Ans: 1.88

Q: Recorded protein stability index of F19I , please.
Ans: 2.82

Q: Query: protein stability index; subject: N16A
Ans: 2.42

Q: // query protein stability index value for entry I1P
Ans: 2.35

Q: Report protein stability index for N24T please.
Ans: 2.88

Q: Endpoint output: protein stability index of A18K . Value?
Ans: 2.4

Q: Given the variant T2R , what is its reported protein stability index?
Ans: 2.55

Q: Query: protein stability index; subject: E4M
Ans: 2.57

Q: Item K5D has what recorded protein stability index?
Ans: 2.65

Q: # lookup: protein stability index of V6N
Ans: 3.42

Q: // returns reported protein stability index for input C7L
Ans: 2.77

Q: I would be grateful if you could share the reported protein stability index for E4S .
Ans: 1.74

Q: Given C7N , state its recorded protein stability index.
Ans: 4.1

Q: protein stability index lookup needed for I14F , thanks.
Ans: 2.87

Q: For A18E , what is its reported protein stability index?
Ans: 3.2

Q: State the recorded protein stability index for this entry: A20T
Ans: 2.73

Q: Which protein stability index is listed for Y22K ?
Ans: 2.82

Q: Given N16Y , state its recorded protein stability index.
Ans: 2.1

Q: Field request: protein stability index | item: P23W
Ans: 1.75

Q: Quick one: protein stability index of N24V ?
Ans: 1.65

Q: Suppose we examine the variant V6Y ; what protein stability index value has been reported?
Ans: 2.52

Q: Requested field: protein stability index. Item: C10Y
Ans: 2.64

Q: Please report the recorded protein stability index for K11A .
Ans: 2.19

Q: I am curious: what protein stability index value has been reported for R21I ?
Ans: 2.93

Q: Look up protein stability index: M8R
Ans: 2.39

Q: State the recorded protein stability index for this entry: F19A
Ans: 3.58

Q: Entry under review: K13A . Reported protein stability index?
Ans: 1.7

Q: Query (variant): P23V ; field requested: protein stability index
Ans: 4.25

Q: For K12M , what is its reported protein stability index?
Ans: 1.64

Q: Endpoint output: protein stability index of V6L . Value?
Ans: 2.21

Q: Given the variant T2G , what is its reported protein stability index?
Ans: 2.15

Q: Any idea what protein stability index was measured for E4L ?
Ans: 2.09

Q: Quick check: protein stability index of I1M ?
Ans: 2.2

Q: What does the record list as protein stability index for K11C ?
Ans: 1.42

Q: Could you tell me which protein stability index is on file for V9Y ?
Ans: 1.99

Q: Look at this variant and give its reported protein stability index. K12H
Ans: 2.28
